Reported Property: melting point

Return value of melting point for input COc1ccc(Cn2c(C)cc3cnnc(Cl)c32)cc1 , no commentary.
126 to 128 °C

Others:
Return value of melting point for input Nc1ncc(-c2ccccc2)nc1SC1CCCC1 , no commentary.
92 to 94 °C

---

A collection of molecules and their measured melting point

Return value of melting point for input CC(C)(C)c1nc2cc(N3CCN(S(C)(=O)=O)CC3)c(N=C=S)cc2s1 , no commentary.
128 to 130 °C

Return value of melting point for input CC(C)c1[nH]nc2c1C(=O)c1c(NC(=O)NN3CCN(C)CC3)cccc1-2 , no commentary.
231 to 233 °C

Return value of melting point for input CC(=O)N1CCC(c2cc(F)c(C(=O)O)cc2F)CC1 , no commentary.
206 to 207 °C

Return value of melting point for input COc1cc(-c2ccccc2F)c(Cl)cc1C(=O)N1Cc2ccc(C(=O)N(CC(O)CO)CC(O)C(O)CO)n2Cc2ccccc21 (centres undefined) , no commentary.
192 to 194 °C

Return value of melting point for input CC(C)c1cc(CCCOc2ncccc2CC(=O)O)n(Cc2ccc(Cl)cc2Cl)n1 , no commentary.
111 to 112 °C

Now consider the entry below.
Return value of melting point for input CCCN(CCC)CCCCNC(=O)c1cnc2cc(I)ccc2n1 , no commentary.
74 to 76 °C

---

A collection of compounds and their measured melting point

Here are 3 compounds together with their reported answers.
Return value of melting point for input CC(C)(C)OC(=O)Nc1ccc(-c2ccc(OCc3ccccc3)nc2)cc1NC(=O)CC(=O)c1cccc(-n2ccnc2)c1 , no commentary.
79 to 83 °C

Return value of melting point for input Cc1oc(-c2cccs2)nc1COc1ccc(CON=C(CCC(=O)O)c2ccccc2)cc1 , no commentary.
142 to 143 °C

Return value of melting point for input Cc1ccc(C(=O)Nc2ccc(NCC(C)O)c(C(F)(F)F)c2)cc1Nc1nccc(-c2cccnc2)n1 (stereo not given) , no commentary.
184 to 186 °C

Others:
Return value of melting point for input Cn1cc(CCl)c(=O)c2ccc(F)cc21 , no commentary.
169 to 171 °C

Return value of melting point for input CC(=CC(=O)NC(C)(C)C)OC(=O)c1cc(S(C)(=O)=O)c(Cl)cc1NCc1ccco1 , no commentary.
140 to 145 °C

---

A collection of compounds and their measured melting point

Return value of melting point for input CSc1nc(CC2CCN(c3ccc(F)cc3)CC2)nc(C(=O)NCC(=O)O)c1O , no commentary.
228 to 230 °C

Return value of melting point for input CN1CCC(=C2c3ccccc3C=Cc3ccc(C(=O)OCN4C(=O)CN(C)C4=O)cc32)CC1 , no commentary.
188 to 189 °C

Return value of melting point for input N#CC(NC(=O)c1cccn2c(Cl)cnc12)c1ccco1 (stereo unspecified) , no commentary.
142 to 143 °C

Return value of melting point for input COC(=O)c1ccc2cc(OC)c(OC)cc2c1-c1ccnc(Cl)c1 , no commentary.
142 to 145 °C

Return value of melting point for input C#CCC#CCON1C(=O)c2ccccc2C1=O , no commentary.
134 to 135 °C

Others:
Return value of melting point for input CSC1NC(=O)N(C)C(=O)N1C (stereo unspecified) , no commentary.
137 to 139 °C

Return value of melting point for input CCCCCc1c(C(=O)OCC)oc2cc(OC)ccc12 , no commentary.
38 to 41 °C

Return value of melting point for input COc1cccc(-c2nc3n(n2)Cc2ccc(OC)cc2-3)c1 , no commentary.
136 to 138 °C

Return value of melting point for input CNc1cc(OC)c(OC)cc1[N+](=O)[O-] , no commentary.
147 °C

Return value of melting point for input NN=C(c1ccc(F)cc1)c1ccc(F)cc1 , no commentary.
78 °C

Return value of melting point for input COc1cc(OC)c(C(=O)CCCCN2CCC3(CC2)NC(=O)NC3=O)cc1NS(=O)(=O)c1ccc(C(F)(F)F)cc1 , no commentary.
226 °C
